Tested on: LAT1/LAT2 (System L transporters) in BeWo-STB cells
test-method-notes: Leucine uptake inhibition in BeWo-STB (forskolin-differentiated BeWo cells), Na+-free buffer, 3H-leucine
Format: cell-based, human
condition-context: BeWo-STB; 167 µmol/L leucine; 3 min; Na+-free Hank's buffer; read-out: EC50 of leucine uptake inhibition
measure: pEC50
Reminder that pEC50 is minus the log10 of a molar concentration.

// query What value of pEC50 has been recorded for this entry: NC1(C(=O)O)CC2CCC1C2 (stereo not shown) [BCH, 2‐amino‐2‐norbornane‐carboxylic acid]
// result 3.35

###

target-or-system: LAT1/LAT2 (System L transporters) in BeWo-CTB cells (Homo sapiens)
test-method-notes: Leucine uptake inhibition in BeWo-CTB (undifferentiated BeWo cells), Na+-free buffer, 3H-leucine
Type: cell-based
condition-context: BeWo-CTB; 167 µmol/L leucine; 3 min; Na+-free Hank's buffer; read-out: EC50 of leucine uptake inhibition
The compounds listed here are annotated with their EC50.
Give just the number in nM; leave the unit off.

// query Tell me reported EC50 for Nc1cc(COc2c(Cl)cc(C[C@H](N)C(=O)O)cc2Cl)c2oc(-c3ccccc3)nc2c1 , tested with LAT1/LAT2 (System L transporters) in BeWo-CTB cells (Homo sapiens).
// result 3100

// query Proceed to COc1ccc(-c2nc3cc(N)cc(COc4c(Cl)cc(C[C@H](N)C(=O)O)cc4Cl)c3o2)cc1
// result 800

###

target-or-system: LAT1/LAT2 (System L transporters) in BeWo-CTB cells (Homo sapiens)
test-method-notes: Leucine uptake inhibition in BeWo-CTB (undifferentiated BeWo cells), Na+-free buffer, 3H-leucine
Format: cell-based
condition-context: BeWo-CTB; 167.2 µmol/L leucine; 3 min; four-parameter fit; read-out: EC50 (best-fit value in Figure 4)
The compounds listed here are annotated with their EC50.
Give just the number in µM; leave the unit off.

// query What value of EC50 has been recorded for this entry: COc1ccc(-c2nc3cc(N)cc(COc4c(Cl)cc(C[C@H](N)C(=O)O)cc4Cl)c3o2)cc1
// result 0.799

// query Proceed to CN(C)c1ccc(-c2cccc(Oc3cccc(C[C@H](N)C(=O)O)c3)c2)cn1
// result 3.86

New cases:
// query What value of EC50 has been recorded for this entry: Nc1cc(COc2c(Cl)cc(C[C@H](N)C(=O)O)cc2Cl)c2oc(-c3ccccc3)nc2c1
// result 3.08

###

target-or-system: LAT1/LAT2 (System L transporters) in BeWo-CTB cells (Homo sapiens, UniProt Q01650)
Sequence (Q01650 whole entry): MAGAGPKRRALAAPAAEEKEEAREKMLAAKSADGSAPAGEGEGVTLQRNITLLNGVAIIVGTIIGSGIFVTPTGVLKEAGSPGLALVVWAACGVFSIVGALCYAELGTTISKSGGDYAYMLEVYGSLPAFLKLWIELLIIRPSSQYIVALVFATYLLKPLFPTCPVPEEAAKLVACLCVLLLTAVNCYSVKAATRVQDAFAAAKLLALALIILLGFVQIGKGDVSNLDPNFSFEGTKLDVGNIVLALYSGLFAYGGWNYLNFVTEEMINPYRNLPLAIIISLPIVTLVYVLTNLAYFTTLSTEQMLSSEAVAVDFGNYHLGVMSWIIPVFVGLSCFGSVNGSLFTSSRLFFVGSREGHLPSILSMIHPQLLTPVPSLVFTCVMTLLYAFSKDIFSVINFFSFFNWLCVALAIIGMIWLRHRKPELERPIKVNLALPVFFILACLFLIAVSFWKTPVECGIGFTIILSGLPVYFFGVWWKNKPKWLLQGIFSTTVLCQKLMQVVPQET
Sequence (P08195 103-630 partner): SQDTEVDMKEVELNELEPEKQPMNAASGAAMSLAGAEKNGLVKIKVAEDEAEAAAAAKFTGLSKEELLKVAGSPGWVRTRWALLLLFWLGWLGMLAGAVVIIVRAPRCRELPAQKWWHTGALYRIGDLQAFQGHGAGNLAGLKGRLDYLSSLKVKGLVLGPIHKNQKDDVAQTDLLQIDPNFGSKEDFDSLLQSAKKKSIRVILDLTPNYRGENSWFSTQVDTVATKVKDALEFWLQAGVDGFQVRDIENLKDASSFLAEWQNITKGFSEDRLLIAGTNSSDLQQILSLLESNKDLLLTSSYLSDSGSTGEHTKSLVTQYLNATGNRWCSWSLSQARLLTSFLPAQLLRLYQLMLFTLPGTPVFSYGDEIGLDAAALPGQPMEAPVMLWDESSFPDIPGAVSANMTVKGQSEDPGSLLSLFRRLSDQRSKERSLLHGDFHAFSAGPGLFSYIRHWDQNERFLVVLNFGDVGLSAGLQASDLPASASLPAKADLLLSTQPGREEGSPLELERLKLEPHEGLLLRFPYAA
test-method-notes: Leucine uptake inhibition in BeWo-CTB (undifferentiated BeWo cells), Na+-free buffer, 3H-leucine
Assay type: cell-based
condition-context: BeWo-CTB; four-parameter fit
measure: Bottom of dose-response fit (leucine uptake at maximal inhibition) (nmol/mg protein)
Give just the number in nmol/mg protein; leave the unit off.

Worked set:
// query What value of Bottom of dose-response fit (leucine uptake at maximal inhibition) has been recorded for this entry: CN(C)c1ccc(-c2cccc(Oc3cccc(C[C@H](N)C(=O)O)c3)c2)cn1
// result 0.774

// query Proceed to Nc1cc(COc2c(Cl)cc(C[C@H](N)C(=O)O)cc2Cl)c2oc(-c3ccccc3)nc2c1
// result 0.716

// query Proceed to NC1(C(=O)O)CC2CCC1C2 (stereo not shown)
// result 0

Moving on to the next molecule.
// query What value of Bottom of dose-response fit (leucine uptake at maximal inhibition) has been recorded for this entry: COc1ccc(-c2nc3cc(N)cc(COc4c(Cl)cc(C[C@H](N)C(=O)O)cc4Cl)c3o2)cc1
// result 0.622
